# measurement-target: human PD-L1 / Human PD-1 (Homo sapiens (Human))
# test: Enzyme-Linked Immunosorbent Assay (ELISA), PD-1/PD-L1 binding
# reported-conditions: plate-coated human PD-L1, biotinylated human PD-1
# Description: Biological Example: Enzyme-Linked Immunosorbent Assay—ELISA 96 Well plates were coated with […] of human PD-L1 (obtained from R&D) in PBS overnight at 4° C. The wells were then blocked with 2% BSA in PBS (W/V) with 0.05% TWEEN-20 for 1 hour at 37° C. The plates were washed 3 times with PBS/0.05% TWEEN-20 and the compounds were serial diluted (1:5) in dilution medium and added to the ELISA plates. […] The absorbance was read at 450 nm using a micro-plate spectrophotometer.
pIC50: −log10 of the molar value.
readout-type: pIC50

Answered examples (2):
| molecule | pIC50 |
| --- | --- |
| N#Cc1cncc(COc2cc(O[C@H]3CCc4c(-c5cccc(OCCCN6CCC(F)CC6)c5Cl)cccc43)c(Cl)cc2CN[C@@H]2CCOC[C@H]2O)c1 | > 8.30 |
| CC1(F)CCN(CCCOc2cccc(-c3cccc4c3CC[C@@H]4Oc3cc(OCc4cncc(C#N)c4)c(CN[C@@H]4CCCC[C@@H]4O)cc3Cl)c2Cl)CC1 | > 8.30 |

Kindly review the next molecule as well.
Param item = CCOc1cc(O[C@H]2CCc3c(-c4cccc(OCCCN5CCC5C(C)(C)C)c4C)cccc32)c(Cl)cc1CNC[C@@H]1CCC(=O)N1 (stereo partly drawn) ; retrieve measured pIC50.
6.30 to 8.30

----------
# measurement-target: human PD-L1 / Human PD-1 (Homo sapiens (Human), UniProt Q9NZQ7)
# Sequence (Q9NZQ7 19-239): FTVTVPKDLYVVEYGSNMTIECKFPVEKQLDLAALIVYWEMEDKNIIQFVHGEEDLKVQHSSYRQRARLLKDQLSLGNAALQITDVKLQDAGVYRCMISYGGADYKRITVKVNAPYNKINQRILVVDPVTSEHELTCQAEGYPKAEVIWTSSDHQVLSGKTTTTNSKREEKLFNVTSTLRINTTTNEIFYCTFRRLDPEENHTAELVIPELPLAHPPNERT
# test: Enzyme-Linked Immunosorbent Assay (ELISA), PD-1/PD-L1 binding
# reported-conditions: plate-coated human PD-L1, biotinylated human PD-1
pIC50: −log10 of the molar value.
readout-type: pIC50

| structure-smiles-string | pIC50 |
| --- | --- |
| N#Cc1cc(C#N)cc(COc2cc(O[C@@H]3c4cccc(-c5cccc(OCCCN6CC(F)C6)c5Cl)c4C[C@H]3F)c(Cl)cc2CNC[C@H]2CCC(=O)N2)c1 | 6.30 to 8.30 |
| Cc1c(OCCCN2C(C)(C)CCCC2(C)C)cccc1-c1cccc2c1CC[C@@H]2Oc1cc(OCc2cc(C#N)cc(C#N)c2)c(CN[C@H]2CCC(=O)NC2)cc1Cl | 6.30 to 8.30 |

Param item = Cc1c(OCCCN2CCC(O)CC2)cccc1-c1cccc2c1C[C@H](F)[C@@H]2Oc1cc(OCc2cncc(C#N)c2)c(CN[C@H](C(=O)O)[C@@H](C)O)cc1Cl ; retrieve measured pIC50.
> 8.30

----------
# measurement-target: human PD-L1 / Human PD-1 (Homo sapiens (Human), UniProt Q9NZQ7)
# test: Enzyme-Linked Immunosorbent Assay (ELISA), PD-1/PD-L1 binding
# reported-conditions: plate-coated human PD-L1, biotinylated human PD-1
pIC50: −log10 of the molar value.
Record form. Attribute: pIC50. Fill in for each entry.

| structure-smiles-string | measurement-target | readout-type | reported-result |
| --- | --- | --- | --- |
| C[C@@H](O)[C@H](NCc1cc(Cl)c(O[C@H]2CCc3c(-c4cccc(OCCCN5CCCCC5)c4Cl)cccc32)cc1OCc1cncc(C#N)c1)C(=O)NS(C)(=O)=O | human PD-L1 / Human PD-1 (Homo sapiens (Human), UniProt Q9NZQ7) | pIC50 | > 8.30 |
| N#Cc1cncc(COc2cc(O[C@H]3CCc4c(-c5cccc(OCCCN6CCC(O)CC6)c5Cl)cccc43)c(Cl)cc2CNC(CO)CO)c1 | human PD-L1 / Human PD-1 (Homo sapiens (Human), UniProt Q9NZQ7) | pIC50 | > 8.30 |

Record pIC50 for all entries; do not skip any.
1. N#Cc1cncc(COc2cc(O[C@H]3CCc4c(-c5cccc(OCCCN6CCC6)c5Cl)cccc43)c(Cl)cc2CNC[C@H]2CCC(=O)N2)c1
2. CCOc1cc(O[C@H]2CCc3c(-c4cccc(OCCCN5CCC(F)CC5)c4Cl)cccc32)c(Cl)cc1CNC(C)(CO)CO
3. Cc1c(OCCCN2CCC(O)CC2)cccc1-c1cccc2c1CC[C@@H]2Oc1cc(OCc2cncc(C#N)c2)c(CN[C@@H]2CCCC[C@H]2O)cc1Cl
4. Cc1c(OCCCN2CC3(CC(F)C3)C2)cccc1-c1cccc2c1CC[C@@H]2Oc1cc(OCc2cc(C#N)cc(C#N)c2)c(CN[C@H]2CCC(=O)NC2)cc1Cl

1: > 8.30; 2: 6.30 to 8.30; 3: > 8.30; 4: > 8.30

----------
# measurement-target: human PD-L1 / Human PD-1 (Homo sapiens (Human))
# test: Enzyme-Linked Immunosorbent Assay (ELISA), PD-1/PD-L1 binding
# reported-conditions: plate-coated human PD-L1, biotinylated human PD-1
# Procedure: Biological Example: Enzyme-Linked Immunosorbent Assay—ELISA 96 Well plates were coated with […] of human PD-L1 (obtained from R&D) in PBS overnight at 4° C. The wells were then blocked with 2% BSA in PBS (W/V) with 0.05% TWEEN-20 for 1 hour at 37° C. The plates were washed 3 times with PBS/0.05% TWEEN-20 and the compounds were serial diluted (1:5) in dilution medium and added to the ELISA plates. […] The absorbance was read at 450 nm using a micro-plate spectrophotometer.
Record form. Attribute: IC50. Fill in for each entry.

Answered examples (4):
| compound | reported-result |
| --- | --- |
| Cc1c(OCCCN2CC(F)(F)C2)cccc1-c1cccc2c1CC[C@@H]2Oc1cc(OCc2cc(C#N)cc(C#N)c2)c(CNC[C@H]2CCC(=O)N2)cc1Cl | 5 to 500 nM |
| C[C@@](CO)(NCc1cc(Cl)c(O[C@H]2CCc3c(-c4cccc(OCCCN5CCC5)c4Cl)cccc32)cc1OCc1cncc(C#N)c1)C(=O)O | < 5 nM |
| COC(=O)[C@@H](NCc1cc(Cl)c(O[C@H]2CCc3c(-c4cccc(OCCCN5CCC(O)CC5)c4C)cccc32)cc1OCc1cncc(C#N)c1)[C@@H](C)O | 5 to 500 nM |
| CCOc1cc(O[C@H]2CCc3c(-c4cccc(OCCCN5CCC5(C)C)c4C)cccc32)c(Cl)cc1CN(C)CCCC(=O)OC | 5 to 500 nM |

Record IC50 for all entries; do not skip any.
1. CCOc1cc(O[C@H]2CCc3c(-c4cccc(OCCCN5CCC5(C)C)c4C)cccc32)c(Cl)cc1CNCCO
2. C[C@@](CO)(NCc1cc(Cl)c(O[C@H]2CCc3c(-c4cccc(OCCCN5CCC(O)CC5)c4Cl)cccc32)cc1OCc1cncc(C#N)c1)C(=O)O
3. Cc1c(OCCCN2CCC(F)CC2)cccc1-c1cccc2c1CC[C@@H]2Oc1cc(OCc2cc(C#N)cc(C#N)c2)c(CN[C@H]2CCNC2=O)cc1Cl [drawing 345]
4. Cc1c(OCCCNC[C@@H](O)CO)cccc1-c1cccc2c1CC[C@@H]2Oc1cc(OCc2cncc(C#N)c2)c(CN[C@H](C(=O)O)[C@@H](C)O)cc1Cl
5. C[C@@](CO)(NCc1cc(Cl)c(O[C@H]2CCc3c(-c4cccc(OCCCN5CC(O)C5)c4Cl)cc(F)cc32)cc1OCc1cncc(C#N)c1)C(=O)O
6. CCOc1cc(O[C@H]2CCc3c(-c4cccc(OCCCN5CCC[C@@H]5C(C)C)c4C)cccc32)c(Cl)cc1CNC[C@@H]1CCC(=O)N1
7. N#Cc1cncc(COc2cc(O[C@H]3CCc4c(-c5cccc(OCCCN6CC7(CC(F)C7)C6)c5Cl)cccc43)c(Cl)cc2CN[C@H]2CCC[C@H]2O)c1
8. Cc1c(OCCCN2CCC(O)CC2)cccc1-c1cccc2c1CC[C@@H]2Oc1cc(OCc2cncc(C#N)c2)c(CN[C@@H](CO)C(N)=O)cc1Cl

["< 5 nM", "< 5 nM", "5 to 500 nM", "< 5 nM", "< 5 nM", "< 5 nM", "< 5 nM", "< 5 nM"]

----------
Record form. Attribute: pIC50. Fill in for each entry.
# measurement-target: human PD-L1 / Human PD-1 (Homo sapiens (Human))
# test: Enzyme-Linked Immunosorbent Assay (ELISA), PD-1/PD-L1 binding
# reported-conditions: plate-coated human PD-L1, biotinylated human PD-1
pIC50: −log10 of the molar value.

Answered examples (4):
| molecule | readout-type | reported-result |
| --- | --- | --- |
| CCOc1cc(O[C@H]2CCc3c(-c4cccc(OCCCN5CCC5(C)C)c4C)cccc32)c(Cl)cc1CN(C)CCC(=O)OC(C)(C)C | pIC50 | 4.70 to 6.30 |
| CCOc1cc(O[C@H]2CCc3c(-c4cccc(OCCCNC(C)(C)C)c4C)cccc32)c(Cl)cc1CN1CC(C(=O)O)C1 | pIC50 | 6.30 to 8.30 |
| CCOc1cc(O[C@H]2CCc3c(-c4cccc(OCCCN(C)C(C)C)c4C)cccc32)c(Cl)cc1CNC[C@@H]1CCC(=O)N1 | pIC50 | > 8.30 |
| CCOc1cc(O[C@H]2CCc3c(-c4cccc(OCCCN5[C@H](C)CC[C@H]5C)c4C)cccc32)c(Cl)cc1CN1CCC[C@H](C(=O)O)C1 | pIC50 | 6.30 to 8.30 |

Record pIC50 for all entries; do not skip any.
1. CCOc1cc(O[C@H]2CCc3c(-c4cccc(OCCCN5CCC5(C)C)c4C)cccc32)c(Cl)cc1CNCCB(O)O
2. N#Cc1cncc(COc2cc(O[C@H]3CCc4c(-c5cccc(OCCCN6CC7(C6)CC(F)(F)C7)c5Cl)cccc43)c(Cl)cc2CN[C@@H]2CCC[C@@H]2O)c1
3. N#Cc1cncc(COc2cc(O[C@H]3CCc4c(-c5cccc(OCCCN6CC[C@@H](F)C6)c5Cl)cccc43)c(Cl)cc2CN[C@@H]2CCCC[C@@H]2O)c1
4. Cc1c(OCCCN2CCC(O)CC2)cccc1-c1cccc2c1CC[C@@H]2Oc1cc(OCc2cc(C#N)cc(C#N)c2)c(CN[C@@H](CO)C(=O)O)cc1Cl
5. Cc1c(OCCCN2CC(C)(F)C2)cccc1-c1cccc2c1CC[C@@H]2Oc1cc(OCc2cc(C#N)cc(C#N)c2)c(CN[C@H]2CCC(=O)NC2)cc1Cl

1. 6.30 to 8.30
2. > 8.30
3. > 8.30
4. > 8.30
5. 6.30 to 8.30

Record pIC50 for all entries; do not skip any.
1. Cc1c(OCCCN2CCC(F)CC2)cccc1-c1cccc2c1CC[C@@H]2Oc1cc(OCc2cc(C#N)cc(C#N)c2)c(CN[C@H]2CCNC2=O)cc1Cl [drawing 306]
2. CCOc1cc(O[C@H]2CCc3c(-c4cccc(OCCCN5CCCC5(C)C)c4C)cccc32)c(Cl)cc1CNC[C@@H]1CCC(=O)N1 [drawing 395]
3. CC1(C)CC(O)CCN1CCCOc1cccc(-c2cccc3c2CC[C@@H]3Oc2cc(OCc3cncc(C#N)c3)c(CN[C@@H]3CCCC[C@@H]3O)cc2Cl)c1Cl (some centres unmarked)
4. CCOc1cc(O[C@H]2CCc3c(-c4cccc(OCCCN5CCCC5(C)C)c4C)cccc32)c(Cl)cc1CN(C[C@@H]1CCC(=O)N1)C(C)C
5. CCOc1cc(O[C@H]2CCc3c(-c4cccc(OCCCN5CCC5(C)C)c4C)cccc32)c(Cl)cc1CN1CCC1(C)C
6. Cc1c(OCCCN2CCC(O)CC2)cccc1-c1cccc2c1CCC2Oc1cc(OCc2cc(C#N)cc(C#N)c2)c(CN[C@@H]2CCCC[C@@H]2O)cc1Cl (some centres unmarked)
7. Cc1c(OCCCN2CCC(O)CC2)cccc1-c1cccc2c1CC[C@@H]2Oc1cc(OCc2cncc(C#N)c2)c(CN2CC(O)C2)cc1Cl
8. N#Cc1cncc(COc2cc(O[C@H]3CCc4c(-c5cccc(OCCCN6CCC(F)CC6)c5Cl)cccc43)c(Cl)cc2CN[C@H]2CC[C@@H]2O)c1

6.30 to 8.30
> 8.30
> 8.30
6.30 to 8.30
6.30 to 8.30
> 8.30
> 8.30
> 8.30

Record pIC50 for all entries; do not skip any.
1. Cc1c(OCCCN2CC[C@H](F)C2)cccc1-c1cccc2c1CC[C@@H]2Oc1cc(OCc2cncc(C#N)c2)c(CN[C@@H]2CCCC[C@@H]2O)cc1Cl
2. CCOc1cc(O[C@@H]2c3cccc(-c4cccc(OCCCN5CCC(F)CC5)c4Cl)c3C[C@@H]2F)c(Cl)cc1CN[C@@H]1CCCC[C@@H]1O
3. CC1(F)CCN(Cc2cc(Cl)c(O[C@H]3CCc4c(-c5cccc(OCCCN6CCC(F)CC6)c5Cl)cccc43)cc2OCc2cncc(C#N)c2)CC1
4. C[C@@](CO)(NCc1cc(Cl)c(O[C@@H]2c3cccc(-c4cccc(OCCCN5CC(O)C5)c4Cl)c3C[C@@H]2F)cc1OCc1cncc(C#N)c1)C(=O)O
5. Cc1c(OCCCN2CCC(C)(F)CC2)cccc1-c1cccc2c1C[C@@H](F)[C@@H]2Oc1cc(OCc2cc(C#N)cc(C#N)c2)c(CN[C@H]2CCC(=O)NC2)cc1Cl
6. Cc1c(OCCCN2CC3(CC(F)C3)C2)cccc1-c1cccc2c1CC[C@@H]2Oc1cc(OCc2cncc(C#N)c2)c(CNCC2CCC(=O)N2)cc1Cl (some centres unmarked)

["> 8.30", "6.30 to 8.30", "6.30 to 8.30", "> 8.30", "6.30 to 8.30", "6.30 to 8.30"]

Recorded values, source patent US10919852B2.
